molecules and their reported KA
# Assayed Target: T1, bacterially produced human IL-6 (Homo sapiens, UniProt P05231)
# T1 construct: His
# T1 sequence (P05231 30-212): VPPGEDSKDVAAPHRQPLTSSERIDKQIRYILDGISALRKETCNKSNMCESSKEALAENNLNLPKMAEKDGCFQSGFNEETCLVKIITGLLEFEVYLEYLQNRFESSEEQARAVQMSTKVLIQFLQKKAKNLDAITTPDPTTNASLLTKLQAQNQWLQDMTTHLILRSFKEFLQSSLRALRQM
# Measurement Notes: Surface plasmon resonance (Biacore), bacterially produced human IL-6 coated on CM5 chip
# Format: binding
# Recorded Conditions: bact; periplasmic fractions, 29B11 chain shuffled
Kindly answer with a numeric value in M⁻¹, unit omitted.

# Molecule, Unit Abbrev, KA
measured = [
    ("55H1c: 29B11 chain shuffled Fab, periplasmic fraction (antibody, V domains shown) VH: EVQLVESGGGLVQPGGSLRLSCAASGFTFSSYAMSWVRQAPGKGLEWVSRISSGGISTYYADSVKGRFTISRDNAKNTLYLQMNSLKPEDTAVYYCVRYAWGVQWAFDFWGQGTQVTVSS VL: AQSVVTQPPSVSGSPGKTVTISCAGTSSDVGYGNYVSWYQQLPGMAPKLLIYDVSKRASGIADRFSGSKSGNTASLTISGLQSEDEADYVCASYRRGGTAVFGGGTHLTVLG", "M⁻¹", "1e+10"),
]

# next molecule below
In: Given the molecule 47C2 (R4): 29B11 chain shuffled Fab, periplasmic fraction (antibody, listed as Lama glama, V domains shown) VH: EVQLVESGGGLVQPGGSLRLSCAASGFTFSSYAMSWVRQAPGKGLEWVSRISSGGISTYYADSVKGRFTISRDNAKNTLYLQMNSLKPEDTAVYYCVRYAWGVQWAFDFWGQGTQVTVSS VL: ALSYDLTQPPSVSGSPGKTVTISCAGTSSDVGYGNYVSWYQQLPGMAPKILIYDVNKRASGIADRFSGSKSGNTASLTISGLQSEDEADYYCASYRRGETIVFGGGTHLTVLG , what is its reported KA?
Out: 3.56e+09

# credit: patent US11827701B2
